Data origin, for the record: ChEMBL document CHEMBL6109155

Assay: AUC (0 to 24 hrs) in Sprague-Dawley rat at 20 mg/kg, po measured for 24 hrs
Type: ADME, organism-based
Conditions: in vivo
MEASURED_PARAMETER: AUC(0-t) at 24 h

# SMILES_DATA, OBSERVED
rows = [
    ("COc1cc(CC(=O)N2CCC(NC(=O)NCc3ccc(OC(F)(F)F)cc3)CC2)cc(OC)c1", "0.725 µg·h/mL"),
]

----------
Molecular target: hERG (Homo sapiens)
Sequence (Q12809 whole entry): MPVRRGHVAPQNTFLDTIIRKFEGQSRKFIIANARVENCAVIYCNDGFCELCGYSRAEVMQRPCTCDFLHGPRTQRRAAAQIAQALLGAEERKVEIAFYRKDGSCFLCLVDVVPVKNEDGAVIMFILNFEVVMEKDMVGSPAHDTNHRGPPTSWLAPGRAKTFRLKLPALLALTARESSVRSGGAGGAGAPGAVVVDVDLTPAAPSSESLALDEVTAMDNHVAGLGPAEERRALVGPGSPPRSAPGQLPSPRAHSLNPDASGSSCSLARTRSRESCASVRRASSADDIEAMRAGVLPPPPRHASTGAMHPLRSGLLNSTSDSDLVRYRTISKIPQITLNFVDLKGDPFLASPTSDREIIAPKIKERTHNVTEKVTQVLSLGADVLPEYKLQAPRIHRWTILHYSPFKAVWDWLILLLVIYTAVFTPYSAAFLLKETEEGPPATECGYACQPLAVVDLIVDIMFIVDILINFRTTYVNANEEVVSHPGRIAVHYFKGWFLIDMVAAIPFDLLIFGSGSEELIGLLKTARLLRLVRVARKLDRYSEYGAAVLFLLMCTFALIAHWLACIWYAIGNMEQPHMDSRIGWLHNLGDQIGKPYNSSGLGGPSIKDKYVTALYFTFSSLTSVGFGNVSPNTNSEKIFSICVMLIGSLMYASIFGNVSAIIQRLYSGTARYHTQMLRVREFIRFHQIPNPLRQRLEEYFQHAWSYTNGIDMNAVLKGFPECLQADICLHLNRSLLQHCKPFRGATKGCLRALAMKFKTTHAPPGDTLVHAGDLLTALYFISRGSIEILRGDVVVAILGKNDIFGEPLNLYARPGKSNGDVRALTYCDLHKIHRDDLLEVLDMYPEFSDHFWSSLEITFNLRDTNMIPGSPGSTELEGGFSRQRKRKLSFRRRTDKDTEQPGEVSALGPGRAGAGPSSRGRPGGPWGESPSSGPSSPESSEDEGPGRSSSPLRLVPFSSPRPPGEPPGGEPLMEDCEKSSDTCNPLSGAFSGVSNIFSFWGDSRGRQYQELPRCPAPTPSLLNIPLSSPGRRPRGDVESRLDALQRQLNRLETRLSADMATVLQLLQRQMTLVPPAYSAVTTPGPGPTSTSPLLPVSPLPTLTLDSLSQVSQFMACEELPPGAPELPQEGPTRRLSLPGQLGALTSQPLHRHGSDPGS
Experiment: Inhibition of hERG at 10 uM by whole-cell patch-clamp method relative to control
Assay type: toxicity

# SMILES_DATA, inhibition at 10 µM / %
records = [
    ("COc1cc(CC(=O)N2CCC(NC(=O)NCc3ccc(OC(F)(F)F)cc3)CC2)cc(OC)c1", 12.5),
]

----------
Test system: Mus musculus
Assay: Anti-inflammatory activity in BALB/c mouse model of carrageenan-induced paw edema assessed as inhibition of paw swelling at 20 mg/kg, po measured for 0.5 hrs relative to control
Assay type: functional

# SMILES_DATA, Imax (%)
data = [
    ("O=C(NCc1ccc(OC(F)(F)F)cc1)NC1CCN(C(=O)Cc2cccc(OC(F)(F)F)c2)CC1", 39.7),
    ("COc1cc(CCC(=O)N2CCC(NC(=O)NCc3ccc(OC(F)(F)F)cc3)CC2)cc(OC)c1", 28.3),
    ("O=C(NCc1ccc(OC(F)(F)F)cc1)NC1CCN(C(=O)Cc2ccc3c(c2)OCO3)CC1", 36.3),
    ("CS(=O)(=O)c1ccc(CC(=O)N2CCC(NC(=O)NCc3ccc(OC(F)(F)F)cc3)CC2)cc1", 35.9),
]

----------
Assay: Oral bioavailability in Sprague-Dawley rat at 20 mg/kg measured for 24 hrs
Type: ADME, organism-based
Conditions: in vivo

# SMILES_DATA, bioavailability
records = [
    ("COc1cc(CC(=O)N2CCC(NC(=O)NCc3ccc(OC(F)(F)F)cc3)CC2)cc(OC)c1", "8.3%"),
]

----------
Test: Clearance in Sprague-Dawley rat at 20 mg/kg, po measured for 24 hrs
Assay type: ADME, organism-based
Settings: in vivo

# SMILES_DATA, RESULT_UNIT, CL/F
data = [
    ("COc1cc(CC(=O)N2CCC(NC(=O)NCc3ccc(OC(F)(F)F)cc3)CC2)cc(OC)c1", "mL/min/kg", 470),
]

----------
# Cmax annotations
Experiment: Cmax in liver of C57BL/6J mouse at 20 mg/kg, po measured for 24 hrs
Format: ADME, organism-based
MEASURED_PARAMETER: Cmax (ng/g)

# SMILES_DATA, OBSERVED
rows = [
    ("CCC(=O)N1CCC(CNC(=O)NC2CCN(C(=O)Cc3cc(OC)cc(OC)c3)CC2)CC1", 5940),
    ("COc1cc(CC(=O)N2CCC(NC(=O)NCc3ccc(OC(F)(F)F)cc3)CC2)cc(OC)c1", 3230),
]

----------
Biological target: Bifunctional epoxide hydrolase 2 (Mus musculus)
Sequence (P34914 whole entry): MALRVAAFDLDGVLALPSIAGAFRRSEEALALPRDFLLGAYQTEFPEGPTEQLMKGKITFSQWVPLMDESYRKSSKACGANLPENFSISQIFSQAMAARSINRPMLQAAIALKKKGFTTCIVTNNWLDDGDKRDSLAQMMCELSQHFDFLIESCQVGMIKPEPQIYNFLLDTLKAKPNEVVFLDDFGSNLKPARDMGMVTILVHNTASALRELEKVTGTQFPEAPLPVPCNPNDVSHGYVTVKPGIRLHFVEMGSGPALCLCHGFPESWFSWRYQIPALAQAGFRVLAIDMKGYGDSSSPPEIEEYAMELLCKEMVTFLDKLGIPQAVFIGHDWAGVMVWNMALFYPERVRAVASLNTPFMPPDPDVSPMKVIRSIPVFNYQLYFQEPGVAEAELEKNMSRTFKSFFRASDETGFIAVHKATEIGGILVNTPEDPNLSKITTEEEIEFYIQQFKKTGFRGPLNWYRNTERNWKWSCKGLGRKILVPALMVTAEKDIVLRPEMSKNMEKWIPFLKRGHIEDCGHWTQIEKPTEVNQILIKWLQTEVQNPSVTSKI
Test: biochemical
Description: Inhibition of C57BL/6J mouse brain sEH using 14,15-EET as substrate preincubated for 15 mins followed by substrate addition by HPLC-MS analysis
pIC50: −log10 of the molar value.
Consider the following compounds and their measured pIC50 readings.

# COMPOUND, pIC50
measured = [
    ("CCC(=O)N1CCC(NC(=O)NC2CCN(C(=O)Cc3cc(OC)cc(OC)c3)CC2)CC1", 6.79),
    ("COc1cc(OC)c2c(c1)C1Cc3ccc(NC(=O)NCc4ccc(OC(F)(F)F)cc4)cc3CN1CC2 (stereo unspecified)", 8.84),
    ("CC(C)CNC(=O)NC1CCN(CCc2ccc3c(c2)OCO3)CC1", 5.88),
    ("O=C(Cc1ccc2c(c1)OCO2)NCCCCNC(=O)NCC1CCOCC1", 5.90),
    ("CCC(=O)N1CCC(CNC(=O)NC2CCN(C(=O)Cc3ccc(OC(F)(F)F)cc3)CC2)CC1", 8.00),
    ("COc1cc(OC)cc(C2Cc3ccc(NC(=O)NCc4ccc(OC(F)(F)F)cc4)cc3CN2)c1 (stereo unspecified)", 8.36),
    ("COc1cc(OC)cc(C(=O)N2CCC(NC(=O)NCc3ccc(OC(F)(F)F)cc3)CC2)c1", 8.65),
    ("CC(C)CNC(=O)NCCNC(=O)Cc1ccc2c(c1)OCO2", 5.37),
    ("CCC(=O)NCCCCNC(=O)NC1CCN(C(=O)Cc2cc(OC)cc(OC)c2)CC1", 5.79),
    ("CC(C)C(=O)NCCC/C=C/c1ccc2c(c1)OCO2", 5.31),
    ("COc1cc(OC)cc(-c2cc3ccc(NC(=O)NCc4ccc(OC(F)(F)F)cc4)cc3cn2)c1", 8.71),
    ("CCC(=O)N1CCC(CNC(=O)NC2CCN(C(=O)Cc3cc(OC)cc(OC)c3)CC2)CC1", 7.97),
    ("O=C(Cc1ccccn1)Nc1cccc(CC(=O)N2CCC(NC(=O)NCC3CCOCC3)CC2)c1", 7.26),
    ("CC(C)CNC(=O)NCC1CCN(C(=O)Cc2ccc3c(c2)OCO3)CC1", 6.68),
    ("O=C(NCc1ccc(OC(F)(F)F)cc1)NC1CCN(C(=O)Cc2ccc(OC(F)(F)F)cc2)CC1", 8.65),
    ("CC(C)CNC(=O)NCCCCNC(=O)Cc1ccc2c(c1)OCO2", 8.73),
    ("CN(C)C(=O)NCCC/C=C/c1ccc2c(c1)OCO2", 6.59),
    ("O=C(NCc1ccc(OC(F)(F)F)cc1)NC1CCN(C(=O)Cc2cccc(OC(F)(F)F)c2)CC1", 9.04),
    ("COc1cc(CC(=O)N2CCC(NC(=O)NCc3ccc(C#N)cc3)CC2)cc(OC)c1", 7.84),
    ("CN(C)C(=O)NCCCC/C=C/c1ccc2c(c1)OCO2", 5.19),
    ("CC(C)CNC(=O)NC1CCN(C(=O)Cc2ccc3c(c2)OCO3)CC1", 7.60),
]
